System: endogenous genome targets (ACTB, HSP90AA1)
Experiment: Arrayed SSAP library screening, mKate knock-in assay (editing efficiency)
Assay type: cell-based
Details: percent of mKate knock-in; average of HSP90 and ACTB; 3 days after transfection
Recorded Metric: Editing Efficiency (Absolute, Average, two targets)
Respond with the number and no other words.

// returns reported Editing Efficiency (Absolute, Average, two targets) for input SSAP_199: SEQ ID NO: 368; uncultured Mediterranean phage uvMED (protein, uncultured Mediterranean phage uvMED) TSSITPLVAMQGTLEKMADKFTEALPRQMDVNKFISVAKLTLNKNPRLLQADKTSLMQTFMKAAQDGLYLDGKEAAAVQYGQSVQYIPMVEGIIKVLHNSGLIKTISAEVVYENDFFDYELGTAPKITHKPLIVGDRGKPMCVYAVAITTNDGEYYEVMNMDQINQCRQVSKASSSPHSPWVKWFDQMAKKTVIHRIAKRLPKNDAINSVVTVDDEPNFQQAVNVTPSEPKDSLSRLRDSIGMEGKDVEQAANDLLEKYNKEAREE
11.4025

The record that follows has no Editing Efficiency (Absolute, Average, two targets) shown yet.
// returns reported Editing Efficiency (Absolute, Average, two targets) for input SSAP_4: SEQ ID NO: 166 (protein, Lambda) MSTALATLAGKLAERVGMDSVDPQELITTLRQTAFKGDASDAQFIALLIVANQYGLNPWTKEIYAFPDKQNGIVPVVGVDGWSRIINENQQFDGMDFEQDNESCTCRIYRKDRNHPICVTEWMDECRREPFKTREGREITGPWQSHPKRMLRHKAMIQCARLAFGFAGIYDKDEAERIVENTAYTAERQPERDITPVNDETMQEINTLLIALDKTWDDDLLPLCSQIFRRDIRASSELTQAEAVKALGFLKQKAAEQKVAA
13.8
